Entry source: PubChem BioAssay AID2060484

- Test system: SUM149PT spheroids with HUVEC/MSC, viability
- assay summary: Anticancer human tumor SUM149PT cell line growth inhibition [GQUAD];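 also: spheroids exposed to drugs for seven days before readout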
- applied conditions: curve of first compound; second compound 0.316 µM

- compound: "Nc1ccn(C2OC(CO)C(O)C2(F)F)c(=O)n1 (configuration not stated) + Cc1cnc(CNC(=O)c2c(=O)c3ccc(N4CCCN(C)CC4)nc3n3c2sc2ccccc23)cn1"
  comparative sign: "<"
  IC50 (nM): 31.6
- compound: "C=CC(=O)N1CCN(c2nc(=O)n(-c3c(C)ccnc3C(C)C)c3nc(-c4c(O)cccc4F)c(F)cc23)C(C)C1 (configuration not stated) + CN(C)c1ccc(Nc2c3ccc(NC(=O)CCN4CCCC4)cc3nc3cc(NC(=O)CCN4CCCC4)ccc23)cc1"
  comparative sign: ">"
  IC50 (nM): 10000
- compound: "COc1cc(C2c3cc4c(cc3C(OC3OC5COC(C)OC5C(O)C3O)C3COC(=O)C23)OCO4)cc(OC)c1O (configuration not stated) + Cc1cnc(CNC(=O)c2c(=O)c3ccc(N4CCCN(C)CC4)nc3n3c2sc2ccccc23)cn1"
  comparative sign: "="
  IC50 (nM): 125
- compound: "CC(C)n1c(=O)n(C)c2cnc3cc(F)c(-c4ccc(OCCCN5CCCCC5)nc4)cc3c21 + Cc1cnc(CNC(=O)c2c(=O)c3ccc(N4CCCN(C)CC4)nc3n3c2sc2ccccc23)cn1"
  comparative sign: "="
  IC50 (nM): 3880
- compound: "COc1ncnc(C2CC2)c1-c1ncc2cnn(Cc3ccc(-c4nc(C(F)(F)F)cn4C(C)C)cc3)c2n1 + Cc1[nH]c2ccc(F)cc2c1-c1nc2c3cccnc3c3ncccc3c2[nH]1"
  comparative sign: ">"
  IC50 (nM): 10000
- compound: "CC1COCCN1c1cc(C2(O)CC3CCC(C2)O3)c2cnn(-c3ccn[nH]3)c2n1 (configuration not stated) + Cc1[nH]c2ccc(F)cc2c1-c1nc2c3cccnc3c3ncccc3c2[nH]1"
  comparative sign: "="
  IC50 (nM): 84.1
- compound: "CC(C)(O)C1CCC(Nc2ccc3ncc(-c4cccc(C(F)(F)F)c4)n3n2)CC1 (configuration not stated) + CN(C)c1ccc(Nc2c3ccc(NC(=O)CCN4CCCC4)cc3nc3cc(NC(=O)CCN4CCCC4)ccc23)cc1"
  comparative sign: "="
  IC50 (nM): 1760
